The measurements presented in this section are drawn from the supplement of paper PMC10065799.

- system tested: Grb2 SH2 (UniProt P62993)
- Sequence (P62993 whole entry, looked up, the tested form may be a part): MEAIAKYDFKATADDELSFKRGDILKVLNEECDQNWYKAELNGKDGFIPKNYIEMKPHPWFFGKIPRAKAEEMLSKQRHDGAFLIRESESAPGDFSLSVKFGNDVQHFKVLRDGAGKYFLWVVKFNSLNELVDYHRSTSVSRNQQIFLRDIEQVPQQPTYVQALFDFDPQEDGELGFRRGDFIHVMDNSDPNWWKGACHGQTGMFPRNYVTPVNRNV
- test name: SH2 binding enrichment of the phosphorylated peptide, bacterial display (enrichment ratio); higher = better substrate or ligand; peptides without Tyr show the background;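 note: peptide library displayed on the E. coli surface as eCPX fusions, selected cells deep-sequenced, score is each peptide's frequency after selection divided by its frequency in the input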
The following sequences are shown together with reported SH2 binding enrichment values.
measurement kind: SH2 binding enrichment

>>> value_reported("NSIGNYYKPWF [DHCR24_Y299]")
1.14
>>> value_reported("YRGYSYDDIPD [TMEM230_Y112]")
1.15
>>> value_reported("SQSKGYRPKLF [SIPA1L3_Y1376_G1371S_YF]")
0.852
>>> value_reported("ESTPLYPMLFG [SCLY_Y280_F276S]")
0.931
>>> value_reported("SADIAYNFRHG [PAH_Y166_F161S_YF]")
0.869
>>> value_reported("LLREWYMIISR [HUWE1_Y4066]")
1.71
>>> value_reported("ELSDGYWVVSN [TPP1_Y459_A454E]")
0.636
>>> value_reported("CTTIRYNFMCN [TP53_Y234_H233R_YF]")
1.87
>>> value_reported("PTTKTYFLHFD [HBA1_Y43_P45L]")
1.36
